protocol.summary: Pharmacokinetics in CD-1 mice, single oral dose compared to single intravenous dose
Type: in vivo
conditions.used: mouse, plasma, iv, 0.5 mg/kg
reported.property: half-life (h)
Your answer should be a plain number; it is taken to be in h.

So, Cc1nn(-c2nc(-c3ccc(C(F)(F)F)cc3)c(SC(C)C)s2)c(C(=O)O)c1-c1cccc(F)c1 ? Its half-life was 5.6

---

Test system: 407 cancer cell lines
protocol.summary: Cell viability of cancer cell lines (IC50), CellTiter-Glo Viability Assay, 96 h
Type: cell-based
conditions.used: SNU-368; read-out: Absolute IC50
reported.property: IC50 (µM)
Your answer should be a plain number; it is taken to be in µM.

So, N.N.[Cl][Pt][Cl] [Cisplatin, reference compound] ? Its IC50 was 20.2

---

Test system: 407 cancer cell lines
protocol.summary: Cell viability of cancer cell lines (IC50), CellTiter-Glo Viability Assay, 96 h
Format: cell-based
conditions.used: Homo sapiens, Hep3B; read-out: Absolute IC50
reported.property: IC50

Result for Cc1nn(-c2nc(-c3ccc(C(F)(F)F)cc3)c(SC(C)C)s2)c(C(=O)O)c1-c1cccc(F)c1 [Compound A197] , tested on 407 cancer cell lines, IC50: > 30 µM

---

System: 407 cancer cell lines
protocol.summary: Cell viability of cancer cell lines (IC50), CellTiter-Glo Viability Assay, 96 h
Type: cell-based
conditions.used: PEER; read-out: Absolute IC50
Kindly supply the reported IC50 values for the records listed here.

So, N.N.[Cl][Pt][Cl] [Cisplatin, reference compound] ? Its IC50 was 2040 nM

So, Cc1nn(-c2nc(-c3ccc(C(F)(F)F)cc3)c(SC(C)C)s2)c(C(=O)O)c1-c1cccc(F)c1 ? Its IC50 was 1870 nM

---

Tested on: 407 cancer cell lines
protocol.summary: Cell viability of cancer cell lines (IC50), CellTiter-Glo Viability Assay, 96 h
Type: cell-based
conditions.used: A2780cis, 96 h, A2780cis cells, 96 h; read-out: Absolute IC50
reported.property: pIC50
Interpret pIC50 as the negative base-10 log of the concentration measured in mol/L.

So, Cc1nn(-c2nc(-c3ccc(C(F)(F)F)cc3)c(SC(C)C)s2)c(C(=O)O)c1-c1cccc(F)c1 ? Its pIC50 was 6.27

---

Tested on: 407 cancer cell lines
protocol.summary: Cell viability of cancer cell lines (IC50), CellTiter-Glo Viability Assay, 96 h
Type: cell-based
conditions.used: Homo sapiens, KM-H2, 96 h, KMH-2 cells, 96 h; read-out: Absolute IC50
reported.property: pIC50
Interpret pIC50 as the negative base-10 log of the concentration measured in mol/L.

So, Cc1nn(-c2nc(-c3ccc(C(F)(F)F)cc3)c(SC(C)C)s2)c(C(=O)O)c1-c1cccc(F)c1 ? Its pIC50 was 5.84

---

Tested on: 407 cancer cell lines
protocol.summary: Cell viability of cancer cell lines (IC50), CellTiter-Glo Viability Assay, 96 h
Format: cell-based
conditions.used: SW1271; read-out: Absolute IC50
reported.property: IC50

So, N.N.[Cl][Pt][Cl] [Cisplatin, reference compound] ? Its IC50 was 17.1 µM

---

Tested on: 407 cancer cell lines
protocol.summary: Cell viability of cancer cell lines (IC50), CellTiter-Glo Viability Assay, 96 h
Type: cell-based
conditions.used: Homo sapiens, MKN-45, 96 h, MKN45, 96 h; read-out: Absolute IC50
reported.property: IC50

So, Cc1nn(-c2nc(-c3ccc(C(F)(F)F)cc3)c(SC(C)C)s2)c(C(=O)O)c1-c1cccc(F)c1 [Compound A197] ? Its IC50 was > 30 µM

---

System: 407 cancer cell lines
protocol.summary: Cell viability of cancer cell lines (IC50), CellTiter-Glo Viability Assay, 96 h
Assay type: cell-based
conditions.used: NCI-H69 cells, 96 h; read-out: Absolute IC50
reported.property: pIC50
Interpret pIC50 as the negative base-10 log of the concentration measured in mol/L.

So, N.N.[Cl][Pt][Cl] [Cisplatin, reference compound] ? Its pIC50 was 5.48

---

Tested on: 407 cancer cell lines
protocol.summary: Cell viability of cancer cell lines (IC50), CellTiter-Glo Viability Assay, 96 h
Type: cell-based
conditions.used: HCC2935; read-out: Absolute IC50
Procedure: Viability was determined by using the 50% inhibitory concentration (IC50) as determined with the CellTiter-Glo® Viability Assay (Promega). Experiments were initiated by first thawing and equilibrating the CellTiter-Glo® Buffer to room temperature. The lyophilized CellTiter-Glo® Substrate was also equilibrated to room temperature. […] Cells were harvested during the logarithmic growth period, counted, and the cell concentration adjusted to 4.44×10^4 cells/mL using culture medium. […]
reported.property: IC50 (µM)
Your answer should be a plain number; it is taken to be in µM.

Result for N.N.[Cl][Pt][Cl] [Cisplatin, reference compound] , tested on 407 cancer cell lines, IC50: 51.7

---

System: 407 cancer cell lines
protocol.summary: Cell viability of cancer cell lines (IC50), CellTiter-Glo Viability Assay, 96 h
Assay type: cell-based
conditions.used: Homo sapiens, LoVo; read-out: Absolute IC50
Description: Viability was determined by using the 50% inhibitory concentration (IC50) as determined with the CellTiter-Glo® Viability Assay (Promega). Experiments were initiated by first thawing and equilibrating the CellTiter-Glo® Buffer to room temperature. The lyophilized CellTiter-Glo® Substrate was also equilibrated to room temperature. […] Cells were harvested during the logarithmic growth period, counted, and the cell concentration adjusted to 4.44×10^4 cells/mL using culture medium. […]
reported.property: IC50

So, Cc1nn(-c2nc(-c3ccc(C(F)(F)F)cc3)c(SC(C)C)s2)c(C(=O)O)c1-c1cccc(F)c1 ? Its IC50 was > 30 µM

---

Tested on: 407 cancer cell lines
protocol.summary: Cell viability of cancer cell lines (IC50), CellTiter-Glo Viability Assay, 96 h
Type: cell-based
conditions.used: 96 h, SNU-719 cells, 96 h; read-out: Absolute IC50
pIC50: −log10 of the molar value.
reported.property: pIC50

So, Cc1nn(-c2nc(-c3ccc(C(F)(F)F)cc3)c(SC(C)C)s2)c(C(=O)O)c1-c1cccc(F)c1 ? Its pIC50 was < 4.52

---

Tested on: 407 cancer cell lines
protocol.summary: Cell viability of cancer cell lines (IC50), CellTiter-Glo Viability Assay, 96 h
Format: cell-based
conditions.used: Homo sapiens, SW 1116, 96 h, SW1116 cells, 96 h; read-out: Absolute IC50
Method: Viability was determined by using the 50% inhibitory concentration (IC50) as determined with the CellTiter-Glo® Viability Assay (Promega). Experiments were initiated by first thawing and equilibrating the CellTiter-Glo® Buffer to room temperature. The lyophilized CellTiter-Glo® Substrate was also equilibrated to room temperature. […] Cells were harvested during the logarithmic growth period, counted, and the cell concentration adjusted to 4.44×10^4 cells/mL using culture medium. […]
pIC50: −log10 of the molar value.
reported.property: pIC50

Result for Cc1nn(-c2nc(-c3ccc(C(F)(F)F)cc3)c(SC(C)C)s2)c(C(=O)O)c1-c1cccc(F)c1 , tested on 407 cancer cell lines, pIC50: < 4.52

---

Test system: 407 cancer cell lines
protocol.summary: Cell viability of cancer cell lines (IC50), CellTiter-Glo Viability Assay, 96 h
Type: cell-based
conditions.used: NCI-H82, 96 h; read-out: Absolute IC50
Description: Viability was determined by using the 50% inhibitory concentration (IC50) as determined with the CellTiter-Glo® Viability Assay (Promega). Experiments were initiated by first thawing and equilibrating the CellTiter-Glo® Buffer to room temperature. The lyophilized CellTiter-Glo® Substrate was also equilibrated to room temperature. […] Cells were harvested during the logarithmic growth period, counted, and the cell concentration adjusted to 4.44×10^4 cells/mL using culture medium. […]
reported.property: IC50 (µM)
Your answer should be a plain number; it is taken to be in µM.

So, N.N.[Cl][Pt][Cl] [Cisplatin, reference compound] ? Its IC50 was 1.83

---

Tested on: 407 cancer cell lines
protocol.summary: Cell viability of cancer cell lines (IC50), CellTiter-Glo Viability Assay, 96 h
Format: cell-based
conditions.used: OS-RC-2; read-out: Absolute IC50
reported.property: IC50

Result for N.N.[Cl][Pt][Cl] [Cisplatin, reference compound] , tested on 407 cancer cell lines, IC50: 3.5 µM

---

Tested on: 406 cancer cell lines, 73 blood tumor cell lines and 333 solid tumor cell lines
protocol.summary: OmniScreen drug efficacy on cancer cell lines, fitted area under curve (AUC) of dose-response
Format: cell-based
conditions.used: Homo sapiens, CAL-27, CAL-27, Tongue
reported.property: IC50 (µM)
Your answer should be a plain number; it is taken to be in µM.

So, Cc1nn(-c2nc(-c3ccc(C(F)(F)F)cc3)c(SC(C)C)s2)c(C(=O)O)c1-c1cccc(F)c1 ? Its IC50 was 3.42

---

System: 407 cancer cell lines
protocol.summary: Cell viability of cancer cell lines (IC50), CellTiter-Glo Viability Assay, 96 h
Assay type: cell-based
conditions.used: SCC-9 cells, 96 h; read-out: Absolute IC50
reported.property: IC50 (µM)
Your answer should be a plain number; it is taken to be in µM.

Result for N.N.[Cl][Pt][Cl] [Cisplatin, reference compound] , tested on 407 cancer cell lines, IC50: 8.37

Hello, the source for this data is patent US20210278408A1, in case you need it.
